# System: NOMO1
# assayDetails: cell viability relative to DMSO control; higher = less cytotoxic
# testParameters: RPMI 5 mM glucose + 10% dialyzed FBS; 48 h; 0.0211 µM

compound: NC(=O)NO
cell viability / %: 95.3

compound: CC(C)Cc1ccc(C(C)C(=O)O)cc1 (centres undefined)
cell viability / %: 85.4

compound: CNC(=O)Nc1ccc(-c2nc(N3CC4CCC(C3)O4)c3cnn(C4CCC5(CC4)OCCO5)c3n2)cc1
cell viability / %: 79.3

compound: CC(O)C1C2C(C)\C(=C(/N2C1=O)C(O)=O)SC3CNC(C3)C(=O)N(C)C (centres undefined)
cell viability / %: 84.1

compound: CNC(=O)[C@H](CC/1=C/N=C\2/C=C\C\C=C12)NC(=O)[C@H](CC(C)C)CC(=O)NO
cell viability / %: 111

compound: C[C@]12CC[C@H]3[C@@H](CCC/4=C/C(=O)CC[C@]34C)[C@@H]1CC[C@@H]2OC(=O)CCC5CCCC5
cell viability / %: 110

compound: CO/N=C(\C(=O)N[C@@H]1C(=O)N2C(C(=O)OCOC(=O)C(C)(C)C)=C(/C=C\c3scnc3C)CS[C@H]12)c1csc(N)n1
cell viability / %: 80.9

compound: O=C1NC(=O)/C(=C/c2ccc(-c3ccc(F)cc3O)o2)S1
cell viability / %: 103

compound: COc1cc(CNC(=O)CCCC/C=C/C(C)C)ccc1O
cell viability / %: 98.5

###

Each entry below lists one item and its recorded cell viability value.
# Tested on: SEM cells
# assayDetails: cell viability relative to DMSO control; higher = less cytotoxic
# testParameters: RPMI 5 mM glucose + 10% FBS; 48 h; 46.1 µM

compound: Nc1nc(Cl)nc2c1ncn2[C@@H]1O[C@H](CO)[C@@H](O)[C@@H]1F
target: SEM cells
cell viability: 2.88%
//
compound: Cc1onc(-c2ccccc2)c1C(=O)N[C@@H]1C(=O)N2[C@@H]1SC(C)(C)[C@@H]2C(=O)[O-].[Na+]
target: SEM cells
cell viability: 103%
//
compound: C#CCN[C@@H]1CCc2ccccc21.CS(=O)(=O)O
target: SEM cells
cell viability: 95.2%
//
compound: CC(NCCc1ccc(O)cc1)C(O)c1ccc(O)cc1 (centres undefined)
target: SEM cells
cell viability: 99.4%
//
compound: CNC(=O)Nc1ccc(-c2nc(N3CC4CCC(C3)O4)c3cnn(C4CCC5(CC4)OCCO5)c3n2)cc1
target: SEM cells
cell viability: 14.5%
//
compound: CNC(=O)N1\N=C(\C2=CC=C(N)C=C2)C3=CC4=C(OCO4)C=C3CC1C (centres undefined)
target: SEM cells
cell viability: 8.13%
//
compound: CO/N=C(\C(=O)N[C@@H]1C(=O)N2C(C(=O)OCOC(=O)C(C)(C)C)=C(/C=C\c3scnc3C)CS[C@H]12)c1csc(N)n1
target: SEM cells
cell viability: 58.5%
//
compound: COc1cc(C(=O)NS(=O)(=O)c2ccccc2C)ccc1Cc1cn(C)c2ccc(NC(=O)OC3CCCC3)cc12
target: SEM cells
cell viability: 4.48%
//
compound: COc1cc(CNC(=O)CCCC/C=C/C(C)C)ccc1O
target: SEM cells
cell viability: 12.5%

###

# System: SEM cells
# assayDetails: cell viability relative to DMSO control; higher = less cytotoxic
# testParameters: HPLM + 10% dialyzed FBS; 48 h; 0.19 µM
endpointName: cell viability (%)

compound: CN(C)CCN1C(=O)c2cccc3cc(N)cc(c23)C1=O
unitAbbreviation: %
recordedMeasurement: 107
//
compound: Cc1noc(-c2ccc(CSCCC(=O)O)cc2)c1NC(=O)OC(C)c1ccccc1Cl (stereo not drawn)
unitAbbreviation: %
recordedMeasurement: 97
//
compound: CCN(c1ccccc1)c1cc(NC)[n+](C)c(C)n1
unitAbbreviation: %
recordedMeasurement: 114
//
compound: CC(O)C1C2C(C)\C(=C(/N2C1=O)C(O)=O)SC3CNC(C3)C(=O)N(C)C (stereo not drawn)
unitAbbreviation: %
recordedMeasurement: 81.4
//
compound: COc1cc(N2CCC(N(C)C)CC2)ccc1Nc1ncc(Cl)c(Nc2ccccc2P(C)(C)=O)n1
unitAbbreviation: %
recordedMeasurement: 82.3
//
compound: CC(=O)[C@]1(O)Cc2c(O)c3c(c(O)c2[C@@H](O[C@H]2C[C@H](N)[C@H](O)[C@H](C)O2)C1)C(=O)c1ccccc1C3=O
unitAbbreviation: %
recordedMeasurement: 119
//
compound: COc1ccc2cc1Oc1ccc(cc1)C[C@H]1c3cc(c(OC)cc3CCN1C)Oc1c(OC)c(OC)cc3c1[C@H](C2)N(C)CC3
unitAbbreviation: %
recordedMeasurement: 123
//
compound: Cc1onc(-c2ccccc2)c1C(=O)N[C@@H]1C(=O)N2[C@@H]1SC(C)(C)[C@@H]2C(=O)[O-].[Na+]
unitAbbreviation: %
recordedMeasurement: 75.3
